# Tested on: DeltatarO mutant
# testDetails: S. aureus survival, RN4220 and DeltatarO strains – OD600, teichoic acid synthesis inhibitors, primary screen (AID 463173)
# assaySetup: S. aureus RN4220 wild type/DeltatarO growth, OD600, 18 h, hits give low values, screened at 18.75 µg/mL (by protocol)
Screen size: about 52,000 compounds; about 4,300 (8.3%) were called active. What follows is part of a selection rich in actives, with near analogues and random picks from the rest.
Assign survival to each entry below.
Give bare numbers, in %.

compound	unitLabel	endpointValue
O=C(NC1CC(=O)N(c2ccc(F)cc2)C1)c1ccc2c(c1)OCO2 (stereo not given)	%	75
COc1ccccc1C(=O)NC1(C(F)(F)F)NC(=O)N(CCc2ccccc2)C1=O (stereo not given)	%	73

# per-item lookup of survival; items listed below
1. COc1cccc(C(=O)NCC(c2ccc(N(C)C)cc2)N2CCCC2)c1OC (stereo not given)
2. CCC(=O)N1CCc2cc(CNC(=O)C(CC)c3ccccc3)ccc21 (stereo not given)
3. COc1cccc(CC(=O)Nc2ccc3nc(Nc4cccc(C(F)(F)F)c4)cc(C)c3c2)c1
4. COc1cccc2c1Oc1ncccc1N(C(=O)CCC(=O)NCc1ccc(C)cc1)C2
5. O=[N+]([O-])c1cc(-c2nc(-c3ccccc3)no2)ccc1NCc1ccco1
6. COc1ccccc1CC(=O)Nc1ccc2nc(Nc3cccc(Cl)c3)cc(C)c2c1
7. COc1ccccc1-c1noc(-c2ccc(NCc3ccco3)c([N+](=O)[O-])c2)n1
8. COc1ccc(-c2noc(-c3ccc(NCc4ccco4)c([N+](=O)[O-])c3)n2)cc1OC

Out:
94
92
25
81
64
144
97
43

* * *

# System: DeltatarO mutant
# testDetails: S. aureus survival, RN4220 and DeltatarO strains – OD600, teichoic acid synthesis inhibitors, primary screen (AID 463173)
# assaySetup: S. aureus RN4220 wild type/DeltatarO growth, OD600, 18 h, screened at 18.75 µg/mL (by protocol)
In all, about 52,000 compounds went through this assay and about 4,300 (8.3%) were called active. No stated cut-off is given here; in the data, active means survival mostly below about 52% (no sharp cut-off); inactive means mostly above about 56%. Many of the other results were omitted from the sample, so actives are more common in it than they were.
Outcome field: choose from True for active, False for inactive

chemSmiles	assignedLabel
COc1cc(OC)c(NC(=O)CN2C(=O)CCn3nc(-c4cccn4C)cc32)cc1Cl	False
Oc1ccc(-c2nc3ccc(Cl)cn3c2Nc2ccc(Cl)cc2)cc1	True

In: Any idea what this test logged for Cc1ccc(N2CCN(C(=O)NCc3noc4ccc(C)cc34)CC2)c(C)c1 ?
Out: False

In: Any idea what this test logged for Cc1ccc2nc(-c3ccc(O)cc3)c(Nc3ccc(Cl)cc3)n2c1 ?
Out: False

In: Any idea what this test logged for Cc1cc(/C=C(\C#N)C(=O)Nc2ccccc2)c(C)n1-c1ccc(F)cc1 ?
Out: False

* * *

# Test system: DeltatarO mutant
# testDetails: S. aureus survival, RN4220 and DeltatarO strains – OD600, teichoic acid synthesis inhibitors, primary screen (AID 463173)
# assaySetup: S. aureus RN4220 wild type/DeltatarO growth, OD600, 18 h, hits give low values, screened at 18.75 µg/mL (by protocol)
Screen size: about 52,000 compounds; about 4,300 (8.3%) were called active. The list comes from a sample in which actives are over-represented; it also holds close analogues and randomly drawn compounds.
Note to self: survival under 60% means true (1), ties and anything higher get false (0).

Known results for compounds:
compound	targetOrTestSystem	assignedLabel
C/C=C1\NC(=S)N(Cc2ccccc2)C1=O	DeltatarO mutant	false (0)
COc1ccc2c(c1)c(=O)c(S(=O)(=O)c1ccccc1)cn2CC(=O)Nc1ccc(C)c(Cl)c1	DeltatarO mutant	false (0)
CCOC(=O)N1CCC(NC(=O)c2ccc3c(c2)N(Cc2cc(C)ccc2C)C(=O)c2ccccc2S3=O)CC1 (stereo not given)	DeltatarO mutant	true (1)
CCOC(=O)N1CCC(NC(=O)c2ccc3c(c2)N(Cc2ccccc2)C(=O)c2ccccc2S3=O)CC1 (stereo not given)	DeltatarO mutant	true (1)
CCOc1ccc(NC(=O)c2ccc(-c3cccc(Cl)c3C)o2)cc1	DeltatarO mutant	true (1)

In: survival strictly < 60% for this compound? CCN(C(=O)c1ccc2c(c1)N(Cc1cccc(Cl)c1)C(=O)c1ccccc1S2=O)c1ccccc1 (stereo not given)
Out: true (1)

In: survival strictly < 60% for this compound? CCCCN(C)C(=O)c1ccc2c(c1)N(Cc1cccc(Cl)c1)C(=O)c1ccccc1S2=O (stereo not given)
Out: false (0)

In: survival strictly < 60% for this compound? O=C1CCN(Cc2ccccc2)C(=S)N1
Out: true (1)

In: survival strictly < 60% for this compound? Cc1cc(=O)n2c(C(=O)Nc3ccc(Br)cc3)c(C(=O)Nc3ccccc3)sc2n1
Out: false (0)

Data provenance: PubChem BioAssay AID463173
